meta.source: ChEMBL document CHEMBL1154520

Tested on: HCT-8
test: Antitumor activity against human HCT8 xenografted in BALB/c nu/nu mouse assessed as change in body weight at 10 mg/kg, ip q3d for 3 days
Assay type: functional
experimentalConditions: route intraperitoneal
metric: Activity (%)
Give the quantity in %, number only.

Below: 4 compounds and their reported Activity.
[[record]]
compound = "CC[C@@]1(OC(=O)C(C)n2cccn2)C(=O)OCc2c1cc1n(c2=O)Cc2cc3ccccc3nc2-1 (stereo not given in full)"
metric = "Activity"
datavalue = -2

[[record]]
compound = "CC[C@@]1(OC(=O)Cn2cccn2)C(=O)OCc2c1cc1n(c2=O)Cc2cc3ccccc3nc2-1"
metric = "Activity"
datavalue = 7

[[record]]
compound = "CC[C@@]1(O)C(=O)OCc2c1cc1n(c2=O)Cc2cc3c(CN(C)C)c(O)ccc3nc2-1"
metric = "Activity"
datavalue = -29

[[record]]
compound = "CC[C@@]1(OC(=O)Cn2ccnc2)C(=O)OCc2c1cc1n(c2=O)Cc2cc3ccccc3nc2-1"
metric = "Activity"
datavalue = 6


Problem: Any idea what Activity was measured for CC[C@@]1(OC(=O)COc2cc(C(F)(F)F)ncn2)C(=O)OCc2c1cc1n(c2=O)Cc2cc3ccccc3nc2-1 ?
Solution: 36

###

Each record here notes measured half-life.
test: Chemical stability assessed as half life in PBS at pH 7.4 by HPLC
Format: physicochemical

Below: 2 compounds and their reported half-life.
[[record]]
compound = "CC[C@@]1(OC(=O)CO)C(=O)OCc2c1cc1n(c2=O)Cc2cc3ccccc3nc2-1"
datavalue = "> 48 h"

[[record]]
compound = "CC[C@@]1(OC(=O)Cn2cccn2)C(=O)OCc2c1cc1n(c2=O)Cc2cc3ccccc3nc2-1"
datavalue = "> 48 h"


Note: attention shifts to another entry.
Problem: Any idea what half-life was measured for CC[C@@]1(OC(=O)C(C)n2cccn2)C(=O)OCc2c1cc1n(c2=O)Cc2cc3ccccc3nc2-1 (stereo partly drawn) ?
Solution: > 48 h

###

System: HCT-8
test: Cytotoxicity against human HCT8 cells by MTT assay
Assay type: functional, cell-based
metric: IC50 (nM)
Give the quantity in nM, number only.

Problem: Hi! What's the reported IC50 for CC[C@@]1(OC(=O)C(C)n2cccn2)C(=O)OCc2c1cc1n(c2=O)Cc2cc3ccccc3nc2-1 (stereo partly specified) on HCT-8?
Solution: 230

Problem: Hi! What's the reported IC50 for CC[C@@]1(OC(=O)C(C)n2ccnn2)C(=O)OCc2c1cc1n(c2=O)Cc2cc3ccccc3nc2-1 (stereo partly specified) on HCT-8?
Solution: 480

Problem: Hi! What's the reported IC50 for CC[C@@]1(OC(=O)C(C)Oc2cc(C(F)(F)F)ncn2)C(=O)OCc2c1cc1n(c2=O)Cc2cc3ccccc3nc2-1 (stereo partly specified) on HCT-8?
Solution: 1110

Problem: Hi! What's the reported IC50 for CC[C@@]1(OC(=O)Cn2ccnn2)C(=O)OCc2c1cc1n(c2=O)Cc2cc3ccccc3nc2-1 on HCT-8?
Solution: 380

Problem: Hi! What's the reported IC50 for CC[C@@]1(OC(=O)C[n+]2cccc(C)c2)C(=O)OCc2c1cc1n(c2=O)Cc2cc3ccccc3nc2-1 on HCT-8?
Solution: 3780

Problem: Hi! What's the reported IC50 for CC[C@@]1(OC(=O)C[n+]2cccc(C(C)=O)c2)C(=O)OCc2c1cc1n(c2=O)Cc2cc3ccccc3nc2-1 on HCT-8?
Solution: 2580

Problem: Hi! What's the reported IC50 for CC[C@@]1(OC(=O)COc2cc(C(F)(F)F)ncn2)C(=O)OCc2c1cc1n(c2=O)Cc2cc3ccccc3nc2-1 on HCT-8?
Solution: 1510

Problem: Hi! What's the reported IC50 for CC[C@@]1(OC(=O)C(C)n2cncn2)C(=O)OCc2c1cc1n(c2=O)Cc2cc3ccccc3nc2-1 (stereo partly specified) on HCT-8?
Solution: 510

Problem: Hi! What's the reported IC50 for CC[C@@]1(OC(=O)C[n+]2cccc(O)c2)C(=O)OCc2c1cc1n(c2=O)Cc2cc3ccccc3nc2-1 on HCT-8?
Solution: 2430

Problem: Hi! What's the reported IC50 for CC[C@@]1(OC(=O)C[n+]2cccc(CO)c2)C(=O)OCc2c1cc1n(c2=O)Cc2cc3ccccc3nc2-1 on HCT-8?
Solution: 2090

Problem: Hi! What's the reported IC50 for CC[C@@]1(OC(=O)Cn2cncn2)C(=O)OCc2c1cc1n(c2=O)Cc2cc3ccccc3nc2-1 on HCT-8?
Solution: 740
